Details: Crystal; DTA
Outcome: Met for Normal melting temperature of at least 200 °C; Not met for anything lower.

| compound | answer label |
| --- | --- |
| NC(=O)/N=N/C(N)=O [azodicarbonamide] | Met |
| CC(=O)Nc1ccc(O)cc1 | Not met |
| O=c1oc(-c2ccccc2)nc2ccccc12 | Not met |

Is it the case that O=c1[nH]cc(F)c(=O)[nH]1 has Normal melting temperature reaching or exceeding 200 °C? Met

Is it the case that Cc1cn([C@H]2C[C@H](O)[C@@H](CO)O2)c(=O)[nH]c1=O has Normal melting temperature reaching or exceeding 200 °C? Not met

###

Details: Crystal; DTA
metric: Normal melting temperature (°C)
Your answer should be a plain number; it is taken to be in °C.

Below, each entry is followed by its recorded Normal melting temperature result.
| compound | observed measurement |
| --- | --- |
| CC(C)Cc1ccc(C(C)C(=O)O)cc1 (stereo not drawn) | 74.50 |
| CC(=O)O[C@H]1C(=O)[C@@]2(C)[C@H]([C@H](OC(=O)c3ccccc3)[C@]3(O)C[C@H](OC(=O)[C@H](O)[C@@H](NC(=O)c4ccccc4)c4ccccc4)C(C)=C1C3(C)C)[C@]1(OC(C)=O)CO[C@@H]1C[C@@H]2O | 215.00 |

// lookup Normal melting temperature for COc1ccc2cc([C@H](C)C(=O)O)ccc2c1 [(S)-(+)-naproxen] 157.50
